Assay: Glucuronidation by monkey liver microsomes (MkLM)
Format: in vitro ADME
Conditions: monkey, liver microsomes, pH 7.4, formation of G1 (3-O-glucuronide), read-out: Km or S50
reported-property: Km

Req: If you can, please state the reported Km value of COc1ccc(-c2oc3c(CCC(C)(C)O)c(O)cc(O)c3c(=O)c2O)cc1 [wushanicaritin] .
Resp: 1.58 µM

----------
Assay: Glucuronidation by pooled human liver microsomes (HLM), UDPGA-supplemented
Assay type: in vitro ADME
Settings: human, pooled liver microsomes, pH 7.4, formation of G2 (7-O-glucuronide), read-out: Km or S50
reported-property: Km (µM)
Output spec: scalar in µM, unitless text.

Req: If you can, please state the reported Km value of COc1ccc(-c2oc3c(CCC(C)(C)O)c(O)cc(O)c3c(=O)c2O)cc1 .
Resp: 0.5
